Target: T1, human IL13 (human, UniProt P35225 35-146, biotinylated in the SPR assays (sites not given))
T1 construct: Peprotech; also called hIL13; recombinant human IL13
T1 sequence (P35225 other isoform, or with tags, fused parts or gaps limits assumed): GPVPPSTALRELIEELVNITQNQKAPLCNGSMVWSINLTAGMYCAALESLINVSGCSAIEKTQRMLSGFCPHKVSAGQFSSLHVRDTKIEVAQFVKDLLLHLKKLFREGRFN
Test: SPR BIAcore, biotin-IL13 on SA chip, global fit
Parameter koff: see the listing below.
Measured Endpoint: koff

binder="7D2 (designed binder, N-Cap-(AR)3-C-Cap) DLGKKLLEAARAGQDDEVRILMANGADVNAFDDFGSTPLHLAARSGHLEIVEVLLKHGADVNAHDMIGDTPLHLAAYHGHLEIVEVLLKYGADVNAKDTSGTTPLHLAADSGHLEIVEVLLKHGADVNAQDKFGKTAFDISIDNGNEDLAEILQKLN" measured_endpoint=koff result="0.000292 s⁻¹"
binder="7D7 (designed binder, N-Cap-(AR)3-C-Cap) DLGKKLLEAARAGQDDEVRILMANGADVNATDTYGSTPLHLAARHCHQEIVEVLLKHGADVNANDFIGDTPLHLAAWHGHLEIVEVLLKNGADVNAMDVTGETPLHLAAYHGHLDIVEVLLKNGADVNAQDKFGKTAFDISIDNGNEDLAEILQKLN" measured_endpoint=koff result="6.25e-05 s⁻¹"
binder="6G11 (designed binder, N-Cap-(AR)3-C-Cap) DLGKKLLEAARAGQDDEVRILMANGADVNAEDILGITPLHLAAHHGHLEIVEVLLKHGADVNANDFAGYTPLHLAAVYGHLEIVEVLLKYGADVNATDAWGETPLHLAAYTGHLEIVEVLLKHDADVNAQDKFGKTAFDISIDNGNEDLAEILQKLN" measured_endpoint=koff result="8e-05 s⁻¹"
